target: S1P5 (Homo sapiens); assay: [35S]-GTPγS functional binding assay on CHO-S1P5 membranes; conditions: membranes of CHO cells expressing recombinant S1P5; measure of S1P5 agonism
Sequence (Q9H228 whole entry, species assumed): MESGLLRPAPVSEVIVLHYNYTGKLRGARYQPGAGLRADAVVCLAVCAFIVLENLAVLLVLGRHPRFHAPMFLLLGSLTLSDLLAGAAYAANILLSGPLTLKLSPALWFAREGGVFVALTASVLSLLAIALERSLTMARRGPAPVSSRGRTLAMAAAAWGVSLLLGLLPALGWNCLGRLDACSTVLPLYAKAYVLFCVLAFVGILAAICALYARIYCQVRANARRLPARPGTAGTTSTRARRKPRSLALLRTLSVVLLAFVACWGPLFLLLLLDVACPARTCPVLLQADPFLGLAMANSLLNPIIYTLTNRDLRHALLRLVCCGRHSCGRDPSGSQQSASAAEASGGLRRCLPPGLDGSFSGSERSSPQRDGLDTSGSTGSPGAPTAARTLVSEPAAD
attribute measured: EC50

For orientation, consider the following solved cases.
molecule | EC50
Cc1cc(C2CN(c3c(Cl)cccc3Cl)C2)cc(C)c1CN1CCC(C(=O)N(C)CCO)CC1 [Compound 11] | 100 to 1000 nM
COC1CCN(C(=O)C2CCN(Cc3c(C)cc(C4CN(c5c(Cl)cccc5Cl)C4)cc3C)CC2)CC1 [Compound 14] | 100 to 1000 nM
Cc1cc(C2CN(c3c(Cl)cccc3Cl)C2)cc(C)c1CN1CCC(C(=O)N(C)C(C)C)CC1 [Compound 16] | 1000 to 10000 nM

Request: Could you share which EC50 value was measured for Cc1cc(C2CN(c3c(Cl)cccc3Cl)C2)cc(C)c1CN1CCC(C(=O)NC2CCCCC2)CC1 [Compound 17] ?
Response: 1000 to 10000 nM

Request: // query: Cc1cc(C2CN(c3c(Cl)cccc3Cl)C2)cc(C)c1CN1CCC(C(=O)N2CCC(O)C2)CC1 (stereo not drawn) [Compound 24]
Response: 1000 to 10000 nM

Request: // query: Cc1cc(C2CN(c3c(Cl)cccc3Cl)C2)cc(C)c1CN1CCC(C(=O)NC2CCCC2)CC1 [Compound 15]
Response: 1000 to 10000 nM

* * *

Molecular target: UniProt:Q9H228
Test: [35S]-GTPγS functional binding assay on CHO-S1P5 membranes
Format: biochemical
Conditions: membranes of CHO cells expressing recombinant S1P5; measure of S1P5 agonism
Experimental: CHO cells expressing recombinant S1P5 receptors were cultured in 500 cm^2 culture trays and, once confluent, rinsed and detached with cell-lifting buffer (10 mM HEPES, 154 mM NaCl, 6.85 mM EDTA, pH 7.4). […] Functional binding assays for [^35S]-GTPγS were performed in 96-well non-binding surface plates with a final volume of 200 μL. […] As G protein bound radioactivity directly correlates to receptor activation and coupling to the G protein, this assay is a measure of S1P5 agonism.
Below, each entry is listed alongside its reported EC50.

For orientation, consider the following solved cases.
molecule | measured target | EC50
Cc1cc(C2CN(c3c(Cl)cccc3Cl)C2)cc(C)c1CN1CCC(C(=O)N(C)C2CC2)CC1 [Compound 25] | UniProt:Q9H228 | 1000 to 10000 nM
Cc1cc(C2CN(c3c(Cl)cccc3Cl)C2)cc(C)c1CN1CCC(C(=O)N2CCN(C)CC2)CC1 [Compound 8] | UniProt:Q9H228 | 100 to 1000 nM
Cc1cc(C2CN(c3c(Cl)cccc3Cl)C2)cc(C)c1CN1CCC(C(=O)NCC2CC2)CC1 [Compound 5] | UniProt:Q9H228 | 10 to 100 nM
Cc1cc(C2CN(c3c(Cl)cccc3Cl)C2)cc(C)c1CN1CCC(C(=O)NC2CCC2)CC1 [Compound 6] | UniProt:Q9H228 | 10 to 100 nM
Cc1cc(C2CN(c3c(Cl)cccc3Cl)C2)cc(C)c1CN1CCC(C(=O)NCCN2CCCC2)CC1 [Compound 19] | UniProt:Q9H228 | 1000 to 10000 nM
Cc1cc(C2CN(c3c(Cl)cccc3Cl)C2)cc(C)c1CN1CCC(C(=O)N2CCC(N(C)C)CC2)CC1 [Compound 22] | UniProt:Q9H228 | 1000 to 10000 nM

Request: Any idea what EC50 came out for Cc1cc(C2CN(c3c(Cl)cccc3Cl)C2)cc(C)c1CN1CCC(C(=O)N2CCOCC2)CC1 [Compound 9] on UniProt:Q9H228?
Response: 100 to 1000 nM

Request: // query: Cc1cc(C2CN(c3c(Cl)cccc3Cl)C2)cc(C)c1CN1CCC(C(=O)NCCC(C)C)CC1 [Compound 21]
Response: 1000 to 10000 nM

* * *

biological target: S1P5 (Homo sapiens); test: [35S]-GTPγS functional binding assay on CHO-S1P5 membranes; conditions: membranes of CHO cells expressing recombinant S1P5; measure of S1P5 agonism
attribute measured: EC50

For orientation, consider the following solved cases.
compound | EC50
CNC(=O)C1CCN(Cc2c(C)cc(C3CN(c4c(Cl)cccc4Cl)C3)cc2C)CC1 | 1 to 10 nM
Cc1cc(C2CN(c3c(Cl)cccc3Cl)C2)cc(C)c1CN1CCC(C(=O)N(C)CCN(C)C)CC1 | 100 to 1000 nM
Cc1cc(C2CN(c3c(Cl)cccc3Cl)C2)cc(C)c1CN1CCC(C(=O)NC2CC2)CC1 | 10 to 100 nM
Cc1cc(C2CN(c3c(Cl)cccc3Cl)C2)cc(C)c1CN1CCC(C(=O)NC2CCC(N(C)C)CC2)CC1 (stereo not drawn) | 1000 to 10000 nM
Cc1cc(C2CN(c3c(Cl)cccc3Cl)C2)cc(C)c1CN1CCC(C(=O)N2CCC(O)CC2)CC1 | 100 to 1000 nM

Request: Could you share which EC50 value was measured for Cc1cc(C2CN(c3c(Cl)cccc3Cl)C2)cc(C)c1CN1CCC(C(=O)NCC2CCCCC2)CC1 ?
Response: 1000 to 10000 nM

Request: // query: Cc1cc(C2CN(c3c(Cl)cccc3Cl)C2)cc(C)c1CN1CCC(C(=O)NC2CCC(O)CC2)CC1 (stereo not drawn)
Response: 100 to 1000 nM

Request: // query: Cc1cc(C2CN(c3c(Cl)cccc3Cl)C2)cc(C)c1CN1CCC(C(=O)N(C)C)CC1
Response: 1 to 10 nM

Request: // query: Cc1cc(C2CN(c3c(Cl)cccc3Cl)C2)cc(C)c1CN1CCC(C(=O)NCC(C)C)CC1
Response: 100 to 1000 nM

Request: // query: Cc1cc(C2CN(c3c(Cl)cccc3Cl)C2)cc(C)c1CN1CCC(C(=O)N(C)CC(C)C)CC1
Response: 1000 to 10000 nM

Request: // query: COCCNC(=O)C1CCN(Cc2c(C)cc(C3CN(c4c(Cl)cccc4Cl)C3)cc2C)CC1
Response: 1 to 10 nM

Request: // query: Cc1cc(C2CN(c3c(Cl)cccc3Cl)C2)cc(C)c1CN1CCC(C(=O)N2CCCCC2)CC1
Response: 1000 to 10000 nM
